experiment: protein stability index of a GFP-peptide fusion (yeast GPS) (PSI 1-4); higher = more stable; sorted into four equal gates, so the index is relative within each strain; conditions: doa10∆
Give measured protein stability index for each item. Keep answers brief.
Numbers only.

INSERT INTO results (sequence_content, numeric_result) VALUES
  ('DATRVFVNGVWHGVHRN [RPB2]', 3.04),
  ('PFLNETKPGVYYVPYSK [RPC82]', 3.09),
  ('ILLYGPPGTGKTLCARA [RPT1]', 1.26);

Your task in this section: give protein stability index for each listed record.
1. NDQDMFTIVSLVQLKKF [YML103C/NUP188]
2. HRCAIRSGALIKFKKCD [SSN2]
3. NTNELKEVSSFLMGIFN [MTR3]
4. NGLGTSHINTNVGDNNS [ARP7]
5. NSILSVRDPWSIDFRTY [SRB2]
6. KASLLLHVLVAHKLKKS [FAS2]
7. TQSGGVRPFGVSTLIAG [PRE6]

1. 2.18
2. 2.28
3. 2.93
4. 3.13
5. 2.71
6. 1.38
7. 1.5

====

experiment: protein stability index of a GFP-peptide fusion (yeast GPS) (PSI 1-4); higher = more stable; sorted into four equal gates, so the index is relative within each strain; conditions: ubr1∆
Cut-off 3 on protein stability index, inclusive. At or above means condition met; below means condition not met.

INSERT INTO measurements (sequence_content, qualitative_label) VALUES
  ('SRPGQSGRCDGYILEGE [RPS8A]', 'condition met'),
  ('QQLRTWKRQISYFLKLL [SRB8]', 'condition not met'),
  ('AIQFVKENELLFGEKSI [YCS4]', 'condition not met');

Hi, just wondering whether LNVAEIITSGRDTREVL [ARP9] shows protein stability index of 3 or higher.
condition met

Hi, just wondering whether DAKSTPLRLRLYDNFVS [RPN9] shows protein stability index of 3 or higher.
condition not met

Hi, just wondering whether NHVMYTEVSRKSMKYVK [ECM29] shows protein stability index of 3 or higher.
condition not met

Hi, just wondering whether VRSTIKFQLKKVLCLAV [RPL1A] shows protein stability index of 3 or higher.
condition not met

Hi, just wondering whether QTKRWPTMYTRLCICSG [SIN4] shows protein stability index of 3 or higher.
condition not met

Hi, just wondering whether DVEVDDDFTNELKAELD [SEM1] shows protein stability index of 3 or higher.
condition met

Hi, just wondering whether VLNMLYWVPDWDGVIPT [RPO21] shows protein stability index of 3 or higher.
condition met

Hi, just wondering whether MAKFLKAGKVAVVVRGR [RPL27A] shows protein stability index of 3 or higher.
condition not met

Hi, just wondering whether KMVGLRGFNNQIMQLKK [SNF2] shows protein stability index of 3 or higher.
condition met

Hi, just wondering whether FTDENTIVLSLNVKCTR [RPC40] shows protein stability index of 3 or higher.
condition met

Hi, just wondering whether NEAALVVNITHHELVPK [RPB5] shows protein stability index of 3 or higher.
condition not met

Hi, just wondering whether IPKLKPAPINSLSRDFV [SNU114] shows protein stability index of 3 or higher.
condition not met

Hi, just wondering whether HVKQCQETCDKLRARLV [SMC2] shows protein stability index of 3 or higher.
condition not met

Hi, just wondering whether GMNNASAGLFGSKPAGG [YGL172W/NUP49] shows protein stability index of 3 or higher.
condition met

====

Give measured protein stability index for each item. Keep answers brief.
assay: protein stability index of a GFP-peptide fusion (yeast GPS) (PSI 1-4); higher = more stable; sorted into four equal gates, so the index is relative within each strain; settings: pdr5∆
Numbers only.

# example entries with known answers
INSERT INTO results (sequence_content, reported_property, numeric_result) VALUES
  ('ADGQTLFAGYTDNVIRV [ASC1]', 'protein stability index', 2.16),
  ('HIRKASSKKSKRLDKVG [LRP1]', 'protein stability index', 2.78),
  ('VQSQVDSSSVSEDSAVF [FAS1]', 'protein stability index', 3.33),
  ('RLKYALNGREVKAILMQ [RPS4A]', 'protein stability index', 1.39);

Your task in this section: give protein stability index for each listed record.
1. PSKGQSLSKISQAFDIV [RPP1]
2. VDVKPKSPKERELEERA [RPC25]
3. IFVSILSDRANKNQDAF [ARP9]
4. SFKIFVDVLVISSHSHP [RRP42]
5. PKWERVFLFDIEKVDRE [RRI2]

[3.19, 3.07, 2.39, 1.21, 2.33]

Your task in this section: give protein stability index for each listed record.
1. LERLTLVFCKHITSVPI [GRR1]
2. NDLIVNYEDLATTQAAS [BRN1]
3. EIAGLSPYERRLIDLIR [RPL36A]
4. LEQKIHEVEEILNELQP [SMC1]
5. ELLPHYPFVTNDDIEWM [YJR042W/NUP85]

1.42
3.09
2.37
2.73
2.93

====

test: protein stability index of a GFP-peptide fusion (yeast GPS) (PSI 1-4); higher = more stable; sorted into four equal gates, so the index is relative within each strain; conditions: ubr1∆
Give measured protein stability index for each item. Keep answers brief.
Give bare numbers.

INSERT INTO results (sequence_content, numeric_result) VALUES
  ('ICDPVHKHREARGLTAT [RPL15A]', 3.26),
  ('SIEFAKREKRVFLKHSL [RPN6]', 2.7),
  ('KPSKPFNVDDVLKFTFT [MED8]', 2.74),
  ('IPGEYITYALSGYVRSR [RPS21B]', 2.77),
  ('EITVVKPDSDIVALSSE [PRE6]', 3.3);

Your task in this section: give protein stability index for each listed record.
1. TILYLNVFHGLCAGANN [IRR1]
2. TDEHLIFNSGKMIILDK [ISW2]
3. AKKQNYKLTNDEEGIFS [YCG1]

1: 1.34; 2: 2.59; 3: 3.19

Your task in this section: give protein stability index for each listed record.
1. SNSALFRAVGEGNAQLV [FAS1]
2. NFKKFNERRKDLAERAS [SMC3]
3. FSTNVKDEIVLSGNSVE [RPL9A]
4. LQILAMLLLNIFISSDH [YMR129W/POM152]
5. STVKVSDLNLTDRQKKL [YLR018C/POM34]
6. DELRKQELISKAFTNWN [ISW2]
7. SLGFLQQSNKLHCCIQL [RPN3]
8. FDKIIKIREDHINKIPS [SRB8]

1.94
2.05
2.59
1.13
2.76
2.23
2.14
2.81

Your task in this section: give protein stability index for each listed record.
1. NTKEIAVDLEHHDYRSY [RRP6]
2. QEQITLYDHWDKYHEQW [SSN8]
3. SMGSILLSFVLGVVFGR [YML031W/NDC1]
4. TRVHQLMLEDAVTEREV [MCD1]
5. EYQVIGRRLPTESVPEP [RPL20A]
6. LTSQAPQTTQMFQSQSQ [YDL088C/ASM4]

[3.05, 2.76, 2.64, 2.89, 3.15, 3.06]

====

Give measured protein stability index for each item. Keep answers brief.
experiment: protein stability index of a GFP-peptide fusion (yeast GPS) (PSI 1-4); higher = more stable; sorted into four equal gates, so the index is relative within each strain; conditions: san1∆
Answers are plain numbers.

Your task in this section: give protein stability index for each listed record.
1. SARGIETRPAQVILPMS [FAS2]
2. PEPSHIDQVMMSVSDND [RET1]
3. TKTNVDNNSKAEASFTF [YLR335W/NUP2]
4. DLISEILKWVQWSRIVL [MED1]
5. SNTEPIPRSNRHGSVVE [MED1]

3
2.43
3.07
3.08
2.72

Your task in this section: give protein stability index for each listed record.
1. PVSVSRIARALKQEGAA [RPL18A]
2. LIKKPLTVFYAIKKFKT [SSN3]
3. NDNNSPHTPVTRKGYIP [YLR018C/POM34]
4. KDEPVQNDILQESFINT [FAS2]
5. LSKIKFPESIWKDFTVE [YCG1]
6. SFLSKHALYLAPSGIRM [SSN2]
7. EKLITSKLLVPQKNVKI [PRE10]
8. LTYKSELSKSRALQENG [YMR153W/NUP53]

1: 2.96; 2: 1.77; 3: 2.85; 4: 3.02; 5: 1.87; 6: 1.46; 7: 2.04; 8: 2.01

Your task in this section: give protein stability index for each listed record.
1. NIVSDAGANDTSNNETN [GRR1]
2. YIYSHVNKVPQNVAGDK [SWP82]
3. VDSNLPDDEKFTDENTI [RPC40]
4. FHKQQAHFWKPVLNLDK [RPL28]

1: 1.82; 2: 2.96; 3: 2.02; 4: 2.76

Your task in this section: give protein stability index for each listed record.
1. RETNDDIWRVAGKFELL [SNF2]
2. SMMSDGIEHFDIPPPAI [RPO31]
3. ELSIRFPQYKLTTFANQ [ARP7]

2.43
1.92
1.65

Your task in this section: give protein stability index for each listed record.
1. MIVPVRCFSCGKVVGDK [RPB10]
2. EDLFDDYPSTSLDIRHD [NUT1]
3. DENDSKKNNAASELANP [YAR002W/NUP60]
4. WVFSYLRWFELKPKLYY [SIR3]
5. NLSVTSPYNADFDGDEM [RPO21]
6. GSLSGNSSSMEEVMRIA [ESC2]
7. SLAATYSMISLQNCCII [ARP9]

1: 2.13; 2: 3.09; 3: 3.05; 4: 2.5; 5: 2.96; 6: 2.45; 7: 1.26

Your task in this section: give protein stability index for each listed record.
1. LDEIFSGCDSTKPSLRK [ECM29]
2. DIRKFLDGIYVSHKGFI [RPL9A]
3. TPAFGSNNTGNTAFGNS [YJL041W/NSP1]
4. EPKKPSFTFASSKTSQP [YOR098C/NUP1]
5. MANDLVQARDNSQVFGV [RPS14B]
6. PLPSHALTVQEVLNRVA [YDL116W/NUP84]
7. NESSTFLKLVLSESPVD [SIN4]
8. EEARRKHVSGKILGFVY [RPS22A]

1. 2.65
2. 1.77
3. 3.28
4. 2.9
5. 2.81
6. 2.37
7. 2.05
8. 2.97

Your task in this section: give protein stability index for each listed record.
1. EASNTPIEHQFNPYGDN [PRE7]
2. EITAKEVYDFTHAVGNN [FAS1]
3. TMLENITLRGVENIERV [RPO21]
4. KTKTSLLPTIKRTICKK [RPR2]
5. NHVMYTEVSRKSMKYVK [ECM29]

3.54
2.92
2.82
2.49
2.27

Your task in this section: give protein stability index for each listed record.
1. FLTGQFASNKKINDESS [YML103C/NUP188]
2. YNSVAEAKKFEPTYRLV [RPS24A]
3. NEKVAVMRNTYNTRKNA [GAL11]
4. VIYRGPEPSHIDQVMMS [RET1]
5. NNTNNANSSITPAFGSN [YJL041W/NSP1]

2.44
2.71
2.18
3.19
2.86
